Reference source for all entries: PubChem BioAssay AID1919005

- System: 855422-203-R-J1-PDC complex spheroid growth;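 further: spheroids exposed to agents for seven days before readout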
- test: Anticancer human tumor 855422-203-R-J1-PDC patient-derived bladder carcinoma cell line growth inhibition [AhR]
- measurementParameters: curve of first compound; second compound 10 µM
readoutName: IC50

1) CC(C)c1c(-c2ccccc2)nc2c(C#N)c[nH]n2c1=O + CC(CO)NC(=O)c1cc(-c2ccc(Cl)cc2)nn(-c2cnn(C)c2)c1=O	> 10000 nM

Entry Nc1ccccc1NC(=O)c1ccc(CNC(=O)OCc2cccnc2)cc1 + Cc1cncc(-c2nc(NCCc3c[nH]c4ccccc34)c3ncn(C(C)C)c3n2)c1 , system 855422-203-R-J1-PDC complex spheroid growth: what IC50 was measured? < 31.6 nM

Entry CC1COCCN1c1cc(-c2ccnn2C)c2ccnc(-c3ccn[nH]3)c2n1 (stereo unspecified) + CC(CO)NC(=O)c1cc(-c2ccc(Cl)cc2)nn(-c2cnn(C)c2)c1=O , system 855422-203-R-J1-PDC complex spheroid growth: what IC50 was measured? 178 nM

Entry COc1cc(C2c3cc4c(cc3C(OC3OC5COC(C)OC5C(O)C3O)C3COC(=O)C23)OCO4)cc(OC)c1O (stereo unspecified) + Cc1cncc(-c2nc(NCCc3c[nH]c4ccccc34)c3ncn(C(C)C)c3n2)c1 , system 855422-203-R-J1-PDC complex spheroid growth: what IC50 was measured? < 31.6 nM

Entry NS(=O)(=O)OCC1CC(n2ccc3c(NC4CCc5ccccc54)ncnc32)CC1O (stereo unspecified) + Cc1cncc(-c2nc(NCCc3c[nH]c4ccccc34)c3ncn(C(C)C)c3n2)c1 , system 855422-203-R-J1-PDC complex spheroid growth: what IC50 was measured? < 31.6 nM

Entry O=C(c1cc(Cc2n[nH]c(=O)c3ccccc23)ccc1F)N1CCN(C(=O)C2CC2)CC1 + Cc1ccccc1N=Nc1ccc(NC(=O)c2ccnn2C)c(C)c1 , system 855422-203-R-J1-PDC complex spheroid growth: what IC50 was measured? > 10000 nM
